Target: Membrane-bound transcription factor site-1 protease (Homo sapiens)
Sequence (Q14703 whole entry): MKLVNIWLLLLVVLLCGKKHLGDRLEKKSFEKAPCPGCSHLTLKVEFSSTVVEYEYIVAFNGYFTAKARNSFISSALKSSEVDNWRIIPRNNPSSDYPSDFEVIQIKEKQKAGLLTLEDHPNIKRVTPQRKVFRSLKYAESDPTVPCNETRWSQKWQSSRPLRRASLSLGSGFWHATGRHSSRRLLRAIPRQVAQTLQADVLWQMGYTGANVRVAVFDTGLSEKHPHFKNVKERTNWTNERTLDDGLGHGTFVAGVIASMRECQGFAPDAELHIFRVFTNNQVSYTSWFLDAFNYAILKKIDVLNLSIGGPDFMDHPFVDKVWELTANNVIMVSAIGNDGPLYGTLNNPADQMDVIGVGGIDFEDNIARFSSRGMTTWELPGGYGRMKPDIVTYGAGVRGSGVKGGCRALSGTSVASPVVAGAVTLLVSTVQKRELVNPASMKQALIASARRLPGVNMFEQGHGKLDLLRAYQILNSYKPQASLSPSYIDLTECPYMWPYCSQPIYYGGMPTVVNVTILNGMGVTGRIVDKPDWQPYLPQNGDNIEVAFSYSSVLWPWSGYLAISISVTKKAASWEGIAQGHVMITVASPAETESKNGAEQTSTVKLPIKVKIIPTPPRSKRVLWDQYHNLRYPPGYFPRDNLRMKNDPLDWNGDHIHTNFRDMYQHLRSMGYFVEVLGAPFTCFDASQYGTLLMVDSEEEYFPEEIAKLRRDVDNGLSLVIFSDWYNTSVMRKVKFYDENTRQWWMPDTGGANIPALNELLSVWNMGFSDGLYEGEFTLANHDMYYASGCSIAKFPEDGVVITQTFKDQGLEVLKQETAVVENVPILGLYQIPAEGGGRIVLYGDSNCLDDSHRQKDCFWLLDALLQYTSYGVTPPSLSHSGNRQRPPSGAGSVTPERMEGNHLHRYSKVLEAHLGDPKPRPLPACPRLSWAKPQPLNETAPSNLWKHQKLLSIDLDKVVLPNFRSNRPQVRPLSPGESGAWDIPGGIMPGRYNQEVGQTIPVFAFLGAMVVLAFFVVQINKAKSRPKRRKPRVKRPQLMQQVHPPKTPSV
Assay: Inhibition of human recombinant soluble Kexin isozyme 1
pKi: −log10 of the molar value.
observable: pKi

Known pKi results, listed for orientation:
O=C(COc1ccccc1/N=N/c1ccccc1OCC(=O)N[C@@H](Cc1ccccc1)C(=O)N[C@@H](Cc1ccccc1)C(=O)O)N[C@@H](Cc1ccccc1)C(=O)N[C@@H](Cc1ccccc1)C(=O)O
3.85
CC(C)[C@H](NC(=O)COc1ccccc1/N=N/c1ccccc1OCC(=O)N[C@H](C(=O)OCc1ccccc1)C(C)C)C(=O)OCc1ccccc1
3.90
O=C(COc1ccccc1/N=N/c1ccccc1OCC(=O)N[C@@H](Cc1ccccc1)C(=O)O)N[C@@H](Cc1ccccc1)C(=O)O
3.65

A: O=C(COc1ccccc1/N=N/c1ccccc1OCC(=O)N[C@@H](Cc1ccccc1)C(=O)OCc1ccccc1)N[C@@H](Cc1ccccc1)C(=O)OCc1ccccc1
B: CC(C)[C@H](NC(=O)COc1ccccc1/N=N/c1ccccc1OCC(=O)N[C@H](C(=O)O)C(C)C)C(=O)O
C: O=C(O)CNC(=O)COc1ccccc1/N=N/c1ccccc1OCC(=O)NCC(=O)O
Query string: Arrange the 3 compounds by rising pKi, starting with the smallest. Answer with the labels in sequence, matching the requested order.
Result string: C, B, A

Measured values drawn from BindingDB's records for doi:10.1016/j.bmcl.2010.04.101 for this set.
